Assay: in vitro
Assay type: cell-based, Mouse
Settings: mouse, Mean CC50 ± SD −Irr
Ends that are not written are not given here.
readout-name: CC50 (µM)

>>> print(df.to_string())
                                  substance  comparison_operator  measured_result
0  FLPLIGRVLYGIL-NH2 [DTTyr10, FLPLIGRVL-Y-GILNH2]                    >             1000
1  FLPLIGRVLTGIL-NH2 [DTThr, FLPLIGRVL-T-GILNH2]                    =              183
2  YLPLIGRVLSGIL-NH2 [DTTyr1, Y-LPLIGRVLSGILNH2]                    =              669
